Data origin, for the record: PubChem BioAssay (NCATS)

Examples of molecules with documented activity, negative = inhibition follow.
Assayed target: Lysine-specific demethylase 5B (Homo sapiens)
Test: Optimization screen for KDM5B Histone Demethylases FDH coupled qHTS against the LOPAC library (AID 1347166); note: 0% is about no effect
Condition notes: KDM5B demethylation, FDH-coupled NADH fluorescence (FDH is formaldehyde dehydrogenase); at 57.5 µM (top of the series)
Records with an inconclusive call do not appear. Activity calls are given as the source filed them. Calls come from the whole dose curve; as a rule, active = well fitted inhibition curve with a large enough effect; inconclusive = small, poorly fitted or top-dose-only effect; inactive = flat fitted curve, though single readings scatter.
Observed property: activity, negative = inhibition

> print(dat)
                                    molecule                val
 1                      COc1cc(CC(=O)O)ccc1O  -5.93% (inactive)
 2           COc1cc(CNC(=O)CCCCCCC(C)C)ccc1O    -17% (inactive)
 3    CN1CCc2cc(Cl)c(O)cc2[C@@H](c2ccccc2)C1  -3.21% (inactive)
 4               OC[C@H]1NC[C@@H](O)[C@@H]1O   1.64% (inactive)
 5  CCCCOC(=O)NS(=O)(=O)c1sc(CC(C)C)cc1-c1ccc(Cn2c(CC)nc3c(C)cc(C)nc32)cc1  -19.3% (inactive)
 6  CCN(CC)CCCCCCCCOC(=O)c1cc(OC)c(OC)c(OC)c1  -10.5% (inactive)
 7   CCCn1c(=O)c2[nH]c(C3CCCC3)nc2n(CCC)c1=O  -5.16% (inactive)
 8                       N=C(N)SCCc1cnc[nH]1  -14.3% (inactive)
 9  CCCCCCCCCC[Si](C)(C)CCC(=O)NC(Cc1ccc(C)cc1)c1ccccc1 (stereo unspecified)  -3.59% (inactive)
10  Cn1c(=O)c2c(nc(/C=C/c3cccc(Cl)c3)n2C)n(C)c1=O     -517% (active)
11  CN(CC[C@@H](Oc1ccc(C(F)(F)F)cc1)c1ccccc1)CC(=O)O   -7.4% (inactive)
